OD450 reference
Molecular target: T1, mouse LAG-3 protein with hFc tag (mLAG-3-hFc protein) (mouse; human, UniProt Q61790 24-442)
T1 construct: Made in HEK293 cells; also called mouse LAG-3 extracellular domain protein; not shown: human IgG Fc fragment (hFc) of the pCpC vector
T1 sequence: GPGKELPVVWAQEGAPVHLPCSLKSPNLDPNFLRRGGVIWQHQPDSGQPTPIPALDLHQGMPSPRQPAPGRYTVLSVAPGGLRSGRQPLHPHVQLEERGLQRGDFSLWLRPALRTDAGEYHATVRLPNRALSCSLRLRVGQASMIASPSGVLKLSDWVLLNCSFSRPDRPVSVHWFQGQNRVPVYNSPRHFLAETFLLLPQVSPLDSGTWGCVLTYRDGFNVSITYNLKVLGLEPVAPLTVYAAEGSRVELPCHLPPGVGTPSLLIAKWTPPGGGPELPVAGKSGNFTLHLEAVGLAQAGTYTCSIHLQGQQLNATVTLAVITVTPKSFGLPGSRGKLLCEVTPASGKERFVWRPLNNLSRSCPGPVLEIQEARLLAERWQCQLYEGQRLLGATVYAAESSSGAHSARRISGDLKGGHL
Experiment: ELISA, mLAG-3-hFc coated; 6.6667 nM
ASSAY READOUT: OD450 (OD450)

[
  {
    "BINDER": "556F6B8 (LAG-3 mouse-human chimeric antibody) (antibody, V domains shown, also called 556F8B8) VH: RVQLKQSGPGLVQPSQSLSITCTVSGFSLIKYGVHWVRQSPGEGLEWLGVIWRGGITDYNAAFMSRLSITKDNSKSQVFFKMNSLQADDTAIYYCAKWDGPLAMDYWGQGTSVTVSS VL: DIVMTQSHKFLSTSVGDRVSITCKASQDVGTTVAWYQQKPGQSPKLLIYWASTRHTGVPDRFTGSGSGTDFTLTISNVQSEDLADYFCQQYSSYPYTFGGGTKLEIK",
    "ASSAY READOUT": "OD450",
    "MEASUREMENT UNIT": "OD450",
    "REPORTED VALUE": 0.36
  },
  {
    "BINDER": "105F1E10 (LAG-3 mouse-human chimeric antibody) (antibody, V domains shown) VH: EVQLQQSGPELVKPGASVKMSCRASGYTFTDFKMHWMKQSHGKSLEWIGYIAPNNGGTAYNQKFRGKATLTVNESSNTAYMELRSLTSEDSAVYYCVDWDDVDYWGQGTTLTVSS VL: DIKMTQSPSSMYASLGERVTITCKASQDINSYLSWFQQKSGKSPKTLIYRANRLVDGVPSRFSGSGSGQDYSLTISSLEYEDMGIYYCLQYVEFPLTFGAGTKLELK",
    "ASSAY READOUT": "OD450",
    "MEASUREMENT UNIT": "OD450",
    "REPORTED VALUE": 0.14
  },
  {
    "BINDER": "405B8H3 (LAG-3 mouse-human chimeric antibody) (antibody, V domains shown, also called mouse-human chimeric antibody 405B8H3) VH: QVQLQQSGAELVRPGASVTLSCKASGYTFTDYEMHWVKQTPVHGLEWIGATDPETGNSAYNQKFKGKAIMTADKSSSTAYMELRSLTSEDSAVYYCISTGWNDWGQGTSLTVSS VL: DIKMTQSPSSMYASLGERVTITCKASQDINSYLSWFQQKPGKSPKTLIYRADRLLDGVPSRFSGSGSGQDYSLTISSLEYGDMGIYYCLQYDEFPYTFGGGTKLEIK",
    "ASSAY READOUT": "OD450",
    "MEASUREMENT UNIT": "OD450",
    "REPORTED VALUE": 0.34
  },
  {
    "BINDER": "409B11E12 (LAG-3 mouse-human chimeric antibody) (antibody, V domains shown) VH: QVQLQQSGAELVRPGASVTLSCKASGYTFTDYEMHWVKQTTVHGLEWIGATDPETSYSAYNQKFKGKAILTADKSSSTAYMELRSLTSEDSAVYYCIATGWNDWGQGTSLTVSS VL: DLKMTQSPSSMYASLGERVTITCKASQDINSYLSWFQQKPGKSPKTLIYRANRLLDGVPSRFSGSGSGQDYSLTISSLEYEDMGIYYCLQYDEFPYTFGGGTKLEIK",
    "ASSAY READOUT": "OD450",
    "MEASUREMENT UNIT": "OD450",
    "REPORTED VALUE": 0.31
  },
  {
    "BINDER": "409D4E10 (LAG-3 mouse-human chimeric antibody) (antibody, V domains shown) VH: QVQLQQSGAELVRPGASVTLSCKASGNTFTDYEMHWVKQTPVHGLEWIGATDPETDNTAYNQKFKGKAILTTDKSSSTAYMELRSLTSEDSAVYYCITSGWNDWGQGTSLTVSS VL: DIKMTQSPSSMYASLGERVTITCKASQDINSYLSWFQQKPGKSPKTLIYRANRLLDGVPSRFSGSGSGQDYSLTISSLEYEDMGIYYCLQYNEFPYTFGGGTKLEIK",
    "ASSAY READOUT": "OD450",
    "MEASUREMENT UNIT": "OD450",
    "REPORTED VALUE": 0.23
  }
]

FYI, the data here is from patent US20210155689A1.
